Heads up, these compounds all have Ki values measured for Genome polyprotein (dengue virus type 2, UniProt P29990).
Give the value, in units of µM, as a plain number.

smiles_record	test_system	measure_unit	val
CCOc1ccc(S(=O)(=O)n2nc(OC(=O)c3ccc(-c4ccccc4)cc3)cc2N)cc1	Genome polyprotein (dengue virus type 2, UniProt P29990)	µM	0.665

Attention now shifts to the item below.
input: Query the reported Ki for Genome polyprotein (dengue virus type 2, UniProt P29990); item: "COc1ccc(S(=O)(=O)n2nc(OC(=O)c3ccc(-c4ccccc4)cc3)cc2N)cc1"
output: 7.25

----------
- test_system: Genome polyprotein (dengue virus type 2) (UniProt P29990)
- assay_notes: Inhibition of DENV NS2B-NS3 protease assessed as fluorescence emission using benzoyl-Nle-Lys-Arg-Arg-AMC as substrate at 150 nM preincubated with enzyme for 60 min followed by substrate addition and measured for 15 min by fluorimetric assay
experimental_readout: inhibition (%)
Write the value in % as a bare number.

Known results for compounds:
smiles_record	experimental_readout	val
Nc1ccc(C(=O)Oc2cc(N)n(S(=O)(=O)c3ccccc3)n2)cc1	inhibition	76.4
CC(C)(C)c1ccc(S(=O)(=O)n2nc(OC(=O)c3ccc(N)cc3)cc2N)cc1	inhibition	88.1
CCOc1ccc(S(=O)(=O)n2nc(OC(=O)c3ccc([N+](=O)[O-])cc3)cc2N)cc1	inhibition	32.6
Nc1ccc(C(=O)Oc2cc(N)n(S(=O)(=O)c3ccc(F)cc3)n2)cc1	inhibition	87.8

input: # value lookup — system Genome polyprotein (dengue virus type 2) (UniProt P29990), readout inhibition, item "Cc1ccc(C(=O)Oc2cc(N)n(S(=O)(=O)c3ccc(C(F)(F)F)cc3)n2)cc1"
output: 19.3

----------
- test_system: Genome polyprotein (dengue virus type 2) (UniProt P29990)
- assay_notes: Inhibition of DENV NS2B-NS3 protease assessed as fluorescence emission using benzoyl-Nle-Lys-Arg-Arg-AMC as substrate at 150 nM preincubated with enzyme for 60 min followed by substrate addition and measured for 15 min by fluorimetric assay
experimental_readout: inhibition (%)
Could you give me the number in %? Just the number is fine.

Illustrative cases are given below, each with its answer.
smiles_record	val
Nc1cc(OC(=O)c2ccc([N+](=O)[O-])cc2)nn1S(=O)(=O)c1ccc(Br)cc1	17.3
CCOc1ccc(S(=O)(=O)n2nc(OC(=O)c3ccc(C)cc3)cc2N)cc1	42.1
Nc1cc(OC(=O)c2ccc([N+](=O)[O-])cc2)nn1S(=O)(=O)c1ccc(C(F)(F)F)cc1	22
Nc1cc(OC(=O)c2ccc(-c3ccccc3)cc2)nn1S(=O)(=O)c1ccc(C(F)(F)F)cc1	41.2
Nc1cc(OC(=O)c2ccc(-c3ccccc3)cc2)nn1S(=O)(=O)c1ccc(Oc2ccccc2)cc1	95

input: So what does the record say about inhibition for "COc1ccc(S(=O)(=O)n2nc(OC(=O)c3ccc(-c4ccccc4)cc3)cc2N)cc1" ?
output: 59.7

input: Fill in: inhibition of "CCOc1ccc(S(=O)(=O)n2nc(OC(=O)c3ccc(OC)cc3)cc2N)cc1" is ___
output: 43.6

input: Returns the measured inhibition for the input molecule. Input: "Nc1ccc(C(=O)Oc2cc(N)n(S(=O)(=O)c3ccc(C(F)(F)F)cc3)n2)cc1"
output: 52.6

input: Report inhibition for "Nc1cc(OC(=O)c2ccc([N+](=O)[O-])cc2)nn1S(=O)(=O)c1ccc(Oc2ccccc2)cc1" please.
output: 64.3

----------
- test_system: Genome polyprotein (dengue virus type 2)
- assay_notes: Inhibition of DENV NS2B-NS3 protease assessed as fluorescence emission using benzoyl-Nle-Lys-Arg-Arg-AMC as substrate at 150 nM preincubated with enzyme for 60 min followed by substrate addition and measured for 15 min by fluorimetric assay
Listing of entries alongside the reported inhibition.
Quick note: number first, unit second.

smiles_record	val
Nc1ccc(C(=O)Oc2cc(N)n(S(=O)(=O)c3ccc(Br)cc3)n2)cc1	100%
CCOc1ccc(S(=O)(=O)n2nc(OC(=O)c3ccc(N)cc3)cc2N)cc1	71.9%
Nc1cc(OC(=O)c2ccc([N+](=O)[O-])cc2)nn1S(=O)(=O)c1ccccc1	27.3%

input: Value wanted: inhibition (Genome polyprotein (dengue virus type 2)) of entry "COc1ccc(S(=O)(=O)n2nc(OC(=O)c3ccc(N)cc3)cc2N)cc1"
output: 68.5%

input: Identify the measured inhibition of "COc1ccc(C(=O)Oc2cc(N)n(S(=O)(=O)c3ccc(Oc4ccccc4)cc3)n2)cc1" for Genome polyprotein (dengue virus type 2).
output: 76.7%

input: Form field - read-out: inhibition; system: Genome polyprotein (dengue virus type 2); submitted item: "Cc1ccc(C(=O)Oc2cc(N)n(S(=O)(=O)c3ccc(Oc4ccccc4)cc3)n2)cc1"
output: 81%

input: Return inhibition measured with Genome polyprotein (dengue virus type 2) given this molecule: "CCOc1ccc(S(=O)(=O)n2nc(OC(=O)c3ccc(-c4ccccc4)cc3)cc2N)cc1"
output: 100%

input: Short answer please: inhibition, Genome polyprotein (dengue virus type 2), entry "Nc1ccc(C(=O)Oc2cc(N)n(S(=O)(=O)c3ccc(Cl)cc3)n2)cc1"
output: 85.6%

input: Form field - read-out: inhibition; system: Genome polyprotein (dengue virus type 2); submitted item: "Nc1cc(OC(=O)c2ccc([N+](=O)[O-])cc2)nn1S(=O)(=O)c1ccc(Cl)cc1"
output: 13.2%

----------
- test_system: Genome polyprotein (dengue virus type 2, UniProt P29990)
- assay_notes: Inhibition of DENV2 NS2B-NS3 protease expressed in Escherichia coli assessed as fluorescence emission using Bz-nKRR-AMC as substrate by microplate reader assay
experimental_readout: pIC50
Units for pIC50: none; it is -log10 of a concentration expressed in mol/L.

input: Suppose we examine the molecule "COc1ccc(S(=O)(=O)n2nc(OC(=O)c3ccc(-c4ccccc4)cc3)cc2N)cc1" ; what pIC50 value has been reported?
output: 6.30

----------
Overview of recorded inhibition for various molecules
- test_system: Genome polyprotein (dengue virus type 2) (UniProt P29990)
- assay_notes: Inhibition of DENV NS2B-NS3 protease assessed as fluorescence emission using benzoyl-Nle-Lys-Arg-Arg-AMC as substrate at 150 nM preincubated with enzyme for 60 min followed by substrate addition and measured for 15 min by fluorimetric assay
Form entry: value (%) — number only.

The examples below pair each entry with its known result.
smiles_record	inhibition, %
CC(C)(C)c1ccc(S(=O)(=O)n2nc(OC(=O)c3ccc([N+](=O)[O-])cc3)cc2N)cc1	20.4
Nc1ccc(C(=O)Oc2cc(N)n(S(=O)(=O)c3ccc(Oc4ccccc4)cc3)n2)cc1	100
COc1ccc(C(=O)Oc2cc(N)n(S(=O)(=O)c3ccc(C(F)(F)F)cc3)n2)cc1	16.1
CC(C)(C)c1ccc(S(=O)(=O)n2nc(OC(=O)c3ccc(-c4ccccc4)cc3)cc2N)cc1	59.8

Shifting focus to the molecule that follows.
input: # query: inhibition of entry "Nc1cc(OC(=O)c2ccc(-c3ccccc3)cc2)nn1S(=O)(=O)c1ccccc1"
output: 100

----------
- test_system: Genome polyprotein (dengue virus type 2, UniProt P29990)
- assay_notes: Inhibition of DENV NS2B-NS3 protease assessed as fluorescence emission using benzoyl-Nle-Lys-Arg-Arg-AMC as substrate preincubated with enzyme for 60 min followed by substrate addition and measured for 15 min by fluorimetric assay
pIC50: −log10 of the molar value.
Entry flag: Condition met if pIC50 reaches 7; Condition not met if it does not.

smiles_record	class_label
Nc1cc(OC(=O)c2ccc(-c3ccccc3)cc2)nn1S(=O)(=O)c1ccccc1	Condition met
Nc1ccc(C(=O)Oc2cc(N)n(S(=O)(=O)c3ccc(Oc4ccccc4)cc3)n2)cc1	Condition met
COc1ccc(S(=O)(=O)n2nc(OC(=O)c3ccc(-c4ccccc4)cc3)cc2N)cc1	Condition not met

Kindly review the next compound as well.
input: Is pIC50 for "CCOc1ccc(S(=O)(=O)n2nc(OC(=O)c3ccc(-c4ccccc4)cc3)cc2N)cc1" at or above 7?
output: Condition met
